- System: DeltatarO mutant
- test_description: S. aureus survival, RN4220 and DeltatarO strains – OD600, teichoic acid synthesis inhibitors, primary screen (AID 463173)
- conditions_used: S. aureus RN4220 wild type/DeltatarO growth, OD600, 18 h, stronger effect = lower value, screened at 18.75 µg/mL (by protocol)
The whole screen tested about 52,000 compounds, of which about 4,300 (8.3%) were called active. For the sample, actives were picked, then their nearest neighbours and some compounds at random.
Define the label as 1 (yes) when survival is strictly less than 80% and as 0 (no) in all remaining cases.

# compound, experimental_target, assigned_label
records = [
    ("CCc1ccc(NC(=O)CN2C(=O)CCSc3ccccc32)cc1", "DeltatarO mutant", "0 (no)"),
    ("Fc1ccccc1N1CCN(c2ncc3c(n2)CCN(Cc2ccc(Br)s2)C3)CC1", "DeltatarO mutant", "1 (yes)"),
    ("Cc1ccc(Nc2c3c(nc4nc(-c5cccs5)nn24)CCCC3)cc1F", "DeltatarO mutant", "1 (yes)"),
    ("Cc1cccc(NC(=O)C2CCCN(c3nc4ccccc4s3)C2)c1C (centres undefined)", "DeltatarO mutant", "0 (no)"),
    ("CC(=O)c1cccc(Nc2c3c(nc4nc(-c5cccs5)nn24)CCCC3)c1", "DeltatarO mutant", "0 (no)"),
    ("N#Cc1nc(-c2ccc(COc3ccccc3)o2)oc1NCc1cccnc1", "DeltatarO mutant", "1 (yes)"),
    ("Cc1nn2c(=O)cc(COc3ccc(/C=C(\\C#N)C(=O)Nc4ccc(F)cc4)cc3)nc2s1", "DeltatarO mutant", "1 (yes)"),
    ("Fc1cc(Br)ccc1Nc1c2c(nc3nc(-c4cccs4)nn13)CCCC2", "DeltatarO mutant", "1 (yes)"),
    ("Cc1ccc(OCc2ccc(-c3nc(C#N)c(NCc4cccnc4)o3)o2)cc1", "DeltatarO mutant", "1 (yes)"),
    ("Cc1cccc(NC(=O)Cn2c(=O)n(CCC(=O)N3CCc4ccccc4C3)c(=O)c3ccccc32)c1", "DeltatarO mutant", "0 (no)"),
    ("N#Cc1nc(-c2ccc(COc3ccccc3)o2)oc1NCc1ccccc1", "DeltatarO mutant", "1 (yes)"),
    ("Cc1cccc(Cn2c(C)c(C)c3cc(C(=O)NCc4ccco4)ccc32)c1", "DeltatarO mutant", "0 (no)"),
    ("COc1ccc([N+](=O)[O-])cc1NC(c1nnc(-c2ccccc2)o1)c1ccccc1F (centres undefined)", "DeltatarO mutant", "0 (no)"),
    ("Cc1ccccc1OCc1ccc(-c2nc(C#N)c(NCc3cccnc3)o2)o1", "DeltatarO mutant", "1 (yes)"),
    ("Cc1cc(C)nc(N(C#N)Cc2ccccc2)n1", "DeltatarO mutant", "0 (no)"),
    ("Cc1ccccc1OCc1ccc(-c2nc(C#N)c(NCCCN(C)C)o2)o1", "DeltatarO mutant", "1 (yes)"),
    ("COc1ccc(Nc2oc(-c3ccc(COc4ccccc4)o3)nc2C#N)cc1", "DeltatarO mutant", "0 (no)"),
    ("CC1C(=O)CCNC1c1ccccc1 (centres undefined)", "DeltatarO mutant", "1 (yes)"),
    ("O=C(CNC(=O)c1ccccc1)OCc1cc(=O)n2nc(C3CCCCC3)sc2n1", "DeltatarO mutant", "0 (no)"),
    ("COc1ccc(CNC(=O)CCc2c(C)nc3c(c2C)c(=O)n(C)c(=O)n3C)cc1", "DeltatarO mutant", "0 (no)"),
    ("COc1ccccc1CNC(=O)CCCCn1c(=O)c2ccccc2n(Cc2ccccc2F)c1=O", "DeltatarO mutant", "0 (no)"),
    ("Cc1ccc(Cl)cc1-n1ncc2c(NCCc3ccccc3)ncnc21", "DeltatarO mutant", "1 (yes)"),
    ("COc1ccccc1/C=C/c1nc2ccccc2n1C(C)C", "DeltatarO mutant", "1 (yes)"),
    ("CCN(C(=O)Cn1cnc2c1c(=O)n(C)c(=O)n2C)c1ccccc1C", "DeltatarO mutant", "0 (no)"),
    ("CCOc1ccc(NC(=O)CSc2nc3c([nH]c4ccccc43)c(=O)n2-c2cc(C)cc(C)c2)cc1", "DeltatarO mutant", "0 (no)"),
    ("CCCCNc1oc(-c2ccc(COc3ccccc3C)o2)nc1C#N", "DeltatarO mutant", "0 (no)"),
    ("COc1ccc(C)cc1Nc1c2c(nc3nc(-c4cccs4)nn13)CCCC2", "DeltatarO mutant", "0 (no)"),
    ("COc1ccc(CNc2oc(-c3ccc(COc4ccccc4C)o3)nc2C#N)cc1", "DeltatarO mutant", "1 (yes)"),
    ("CC1CCN(c2oc(-c3ccc(COc4ccccc4)o3)nc2C#N)CC1", "DeltatarO mutant", "1 (yes)"),
    ("CN(C)c1oc(-c2ccc(COc3ccccc3)o2)nc1C#N", "DeltatarO mutant", "1 (yes)"),
    ("COc1cc(OC)c(Nc2c3c(nc4nc(-c5cccs5)nn24)CCCC3)cc1Cl", "DeltatarO mutant", "0 (no)"),
    ("O=C(NCc1ccncc1)C1CCN(C(=O)c2cccc(Cl)c2)CC1", "DeltatarO mutant", "1 (yes)"),
    ("Cc1ccc(C)c(N2CCN(C(=O)Cn3cnc4onc(-c5ccc(F)cc5)c4c3=O)CC2)c1", "DeltatarO mutant", "0 (no)"),
    ("COc1ccc(-c2nc3sc(CCNC(=O)c4ccccc4C)c(C)n3n2)cc1", "DeltatarO mutant", "1 (yes)"),
    ("Cc1ccc(C(C)C)c(OCCn2cc(C(=O)c3ccco3)c3ccccc32)c1", "DeltatarO mutant", "1 (yes)"),
    ("O=C(CN1C(=O)C2CCCCN2c2ccc(C(=O)N3CCCC3)cc21)NCc1cccc(Cl)c1 (centres undefined)", "DeltatarO mutant", "1 (yes)"),
]
